Attribution: patent US20070197525A1

molecular target: norepinephrine transporter (NET) (Rattus norvegicus); construct: Cortex from rat brain was collected and homogenised; from tissue; host or cells: rat brain cortex membranes; assay: In vitro assay for NET inhibition (radioligand binding, rat brain cortex); conditions: rat brain cortex membranes, [3H]Nixosetine radioligand; read-out: NET-inhibition (pIC50) (converted)
Sequence (Q63380 1-617): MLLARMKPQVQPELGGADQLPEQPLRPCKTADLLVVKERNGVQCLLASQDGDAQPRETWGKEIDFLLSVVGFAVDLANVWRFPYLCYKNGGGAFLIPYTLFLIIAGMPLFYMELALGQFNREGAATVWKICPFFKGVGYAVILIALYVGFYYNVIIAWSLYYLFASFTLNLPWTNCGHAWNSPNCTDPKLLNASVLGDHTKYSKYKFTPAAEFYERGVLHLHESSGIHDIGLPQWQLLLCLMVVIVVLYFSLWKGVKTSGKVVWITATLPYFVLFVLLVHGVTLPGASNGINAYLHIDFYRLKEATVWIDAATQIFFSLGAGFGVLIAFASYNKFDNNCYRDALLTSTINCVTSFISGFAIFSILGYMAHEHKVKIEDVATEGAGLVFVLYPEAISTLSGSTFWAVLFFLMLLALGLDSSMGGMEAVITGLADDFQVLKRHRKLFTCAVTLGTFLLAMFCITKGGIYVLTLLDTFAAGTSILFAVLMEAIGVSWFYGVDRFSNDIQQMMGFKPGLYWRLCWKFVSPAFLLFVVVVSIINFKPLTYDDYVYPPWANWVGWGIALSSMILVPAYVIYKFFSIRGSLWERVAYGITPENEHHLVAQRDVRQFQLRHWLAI
READOUT NAME: IC50 (nM)

OC1c2ccccc2C2CC(CNCc3ccccc3)OC2c2cc(F)ccc21 (stereo not shown)	3980

a = CNC[C@@H]1C[C@H]2c3ccccc3C(C)c3ccc(F)cc3[C@@H]2O1 (mixture of isomers)
b = CNCC1CC2c3ccccc3C(C)(O)c3ccc(F)cc3C2O1 (single isomer, unassigned) [Compound 124]
c = CCNCC1CC2c3ccccc3C(C)(O)c3ccc(F)cc3C2O1 (single isomer, unassigned) [Compound 119]
Query: hey, can you rank those compounds up there by IC50? biggest number first please Enter labels, ranked according to the request.
Result: b, a, c
(b: 316 nM, a: 63.1 nM, c: 31.6 nM)
